system: oat, wild (wild oat, Avena fatua); assay: Test D controlled growth environment herbicide test, pre- and postemergence; type: in vivo; settings: Preemergence, 31 g ai/ha
Reported Plant response rating (scale of 0 to 100), Oat, Wild values are given for each entry in this list.
Response field accepts a number only; no unit should be typed.

For orientation, consider the following solved cases.
[
  {
    "molecule": "Cc1nn(C)c(=O)c(-c2cccc3ccc(Br)cc23)c1O [Compound 126]",
    "study-target": "oat, wild (wild oat, Avena fatua)",
    "reported": 65
  },
  {
    "molecule": "Cc1nn(C)c(=O)c(-c2c(C)sc3c(C)cc(Cl)cc23)c1O [Compound 35]",
    "study-target": "oat, wild (wild oat, Avena fatua)",
    "reported": 75
  },
  {
    "molecule": "Cc1nn(C)c(=O)c(-c2cccc3ccccc23)c1O [Compound 11]",
    "study-target": "oat, wild (wild oat, Avena fatua)",
    "reported": 15
  }
]

Dear colleague, I am looking for the recorded Plant response rating (scale of 0 to 100), Oat, Wild of the following molecule: COC(=O)Oc1c(C)nn(C)c(=O)c1-c1c(C)sc2ccc(C)cc12 [Compound 80]
85

Another molecule to check: Cc1cc(C)c2sc(C)c(-c3c(O)c(C)nn(C)c3=O)c2c1 [Compound 2]
80

Another molecule to check: Cc1cc2ccccc2c(-c2c(O)c(C)nn(C)c2=O)c1C [Compound 34]
70

* * *

tested on: johnsongrass (Sorghum halepense); test: Test C greenhouse herbicide test, pre- and postemergence; type: in vivo; details: Postemergence, 31 g ai/ha; 0 to 100 scale (0 no effect, 100 complete control)
Reported Johnsongrass plant response rating values are given for each entry in this list.

For orientation, consider the following solved cases.
[
  {
    "given-smiles": "CCC(=O)Oc1c(C)nn(C)c(=O)c1-c1c(C)ccc2ccccc12",
    "Johnsongrass plant response rating": 5
  },
  {
    "given-smiles": "Cc1cc(C)c2sc(C)c(-c3c(O)c(C)nn(C)c3=O)c2c1",
    "Johnsongrass plant response rating": 5
  },
  {
    "given-smiles": "CCc1sc2c(C)cc(C)cc2c1-c1c(O)c(C)nn(C)c1=O",
    "Johnsongrass plant response rating": 5
  },
  {
    "given-smiles": "CCc1ccc2ccccc2c1-c1c(O)c(C)nn(C)c1=O",
    "Johnsongrass plant response rating": 5
  },
  {
    "given-smiles": "CCc1sc2ccc(C)cc2c1-c1c(O)c(C)nn(C)c1=O",
    "Johnsongrass plant response rating": 10
  },
  {
    "given-smiles": "CCc1oc2ccc(C)cc2c1-c1c(O)c(C)nn(C)c1=O",
    "Johnsongrass plant response rating": 0
  },
  {
    "given-smiles": "Cc1cc(C)c2ccccc2c1-c1c(O)c(C)nn(C)c1=O",
    "Johnsongrass plant response rating": 10
  }
]

Dear colleague, I am looking for the recorded Johnsongrass plant response rating of the following compound: Cc1ccc2ccccc2c1-c1c(O)c(Br)nn(C)c1=O
5

* * *

Reported Plant response rating, Soybean values are given for each entry in this list.
test system: soybean (Glycine max); test: Test E greenhouse herbicide test, pre- and postemergence; assay type: in vivo; conditions: 125 g ai/ha, Postemergence; scale 0 to 100 (0 no effect, 100 complete control)
Response field accepts a number only; no unit should be typed.

For orientation, consider the following solved cases.
[
  {
    "given-smiles": "CCCC(=O)Oc1c(C)nn(C)c(=O)c1-c1c(C)sc2ccc(C)cc12",
    "property": "Plant response rating, Soybean",
    "reported": 25
  },
  {
    "given-smiles": "Cc1nn(C)c(=O)c(-c2ccc(F)c3ccccc23)c1O",
    "property": "Plant response rating, Soybean",
    "reported": 60
  },
  {
    "given-smiles": "Cc1ccc2sc(Br)c(-c3c(O)c(C)nn(C)c3=O)c2c1",
    "property": "Plant response rating, Soybean",
    "reported": 15
  },
  {
    "given-smiles": "CCc1sc2c(C)cc(C)cc2c1-c1c(O)c(C)nn(C)c1=O",
    "property": "Plant response rating, Soybean",
    "reported": 15
  },
  {
    "given-smiles": "Cn1nc(Br)c(O)c(-c2cccc3ccccc23)c1=O",
    "property": "Plant response rating, Soybean",
    "reported": 40
  }
]

Dear colleague, I am looking for the recorded Plant response rating, Soybean of the following molecule: Cc1ccc2sc(C)c(-c3c(OC(=O)OC(C)C)c(C)nn(C)c3=O)c2c1
20

Another molecule to check: Cc1nn(C)c(=O)c(-c2cccc3ccc(Br)cc23)c1O
40

Another molecule to check: Cc1cc2ccccc2c(-c2c(O)c(C)nn(C)c2=O)c1C
70
